- test-target: Caspase-3 (Homo sapiens);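 further: Dose-response selectivity test against caspase-3 for candidate inhibitors of sentrin-specific proteases (SENPs)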
- Sequence (P42574 whole entry): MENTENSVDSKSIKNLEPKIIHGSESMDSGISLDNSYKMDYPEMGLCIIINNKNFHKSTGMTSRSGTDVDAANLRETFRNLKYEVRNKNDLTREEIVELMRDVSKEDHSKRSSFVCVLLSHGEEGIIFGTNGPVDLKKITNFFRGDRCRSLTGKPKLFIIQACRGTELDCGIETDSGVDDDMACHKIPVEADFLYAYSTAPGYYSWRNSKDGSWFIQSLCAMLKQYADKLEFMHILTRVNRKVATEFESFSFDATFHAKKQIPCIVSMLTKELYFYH
- Type: functional
The source made the active and inactive calls.
# IC50 per entry
quantity-kind: IC50

>>> result("CCCSC(=N)N/N=C/c1cc(C)ccc1O")
"46.3 µM (active)"
>>> result("O=C(Nc1ccc(Br)cc1)c1ccc2c(c1)OCO2")
"22.1 µM (active)"
>>> result("COC(=O)c1sc(-c2ccc(Cl)cc2)cc1N")
"17.7 µM (active)"
>>> result("C(=N\\Nc1nc(-c2ccccc2)cs1)/c1cccs1")
"29.8 µM (active)"

---

- test-target: 72 kDa type IV collagenase (Homo sapiens, UniProt P08253)
- Sequence (P08253 whole entry): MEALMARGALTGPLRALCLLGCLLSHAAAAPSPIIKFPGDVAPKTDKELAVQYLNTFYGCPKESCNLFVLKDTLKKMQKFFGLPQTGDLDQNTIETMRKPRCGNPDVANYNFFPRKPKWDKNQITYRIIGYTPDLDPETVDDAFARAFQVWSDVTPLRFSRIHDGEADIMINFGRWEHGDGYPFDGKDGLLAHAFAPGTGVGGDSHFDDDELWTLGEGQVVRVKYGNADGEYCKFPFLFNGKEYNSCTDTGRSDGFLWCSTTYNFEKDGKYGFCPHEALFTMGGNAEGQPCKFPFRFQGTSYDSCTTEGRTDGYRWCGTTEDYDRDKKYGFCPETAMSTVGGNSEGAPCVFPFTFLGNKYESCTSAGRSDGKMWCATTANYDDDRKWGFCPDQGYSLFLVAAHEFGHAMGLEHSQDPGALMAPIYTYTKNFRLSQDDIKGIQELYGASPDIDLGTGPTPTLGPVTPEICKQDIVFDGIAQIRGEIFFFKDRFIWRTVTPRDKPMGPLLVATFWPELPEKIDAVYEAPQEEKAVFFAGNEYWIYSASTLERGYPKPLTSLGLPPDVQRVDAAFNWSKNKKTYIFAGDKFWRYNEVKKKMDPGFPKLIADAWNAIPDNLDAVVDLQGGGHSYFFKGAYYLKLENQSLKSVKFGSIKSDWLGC
- test-details: Dose Response validation of uHTS RPN11 inhibitor hits using a MMP-2 Fluorescence assay.
- Format: functional
The source made the active and inactive calls.
Outcomes: true (active), false (inactive)

>>> assigned_class("O=C(NN=Cc1ccc(N(CCCl)CCCl)cc1)C(=O)c1c[nH]c2ccccc12")
"false"
>>> assigned_class("CC(NC(=O)C1CCN(C(=O)c2cccs2)CC1)c1ccc(S(N)(=O)=O)cc1 (stereo not given)")
"false"
>>> assigned_class("Nc1nc(SCc2ccc(Cl)cc2Cl)nc2nc3c(cc12)CCCC3")
"false"
>>> assigned_class("O=C(O)c1ccc(NC(=S)NC(=O)c2ccc(-c3ccc(Br)cc3)o2)cc1")
"true"
>>> assigned_class("Cc1csc(NC(=O)CSc2nc3sc(C)c(C)c3c(=O)[nH]2)n1")
"false"

---

# IC50 per entry
- test-target: Type-1 angiotensin II receptor (Homo sapiens)
- Sequence (P30556 whole entry): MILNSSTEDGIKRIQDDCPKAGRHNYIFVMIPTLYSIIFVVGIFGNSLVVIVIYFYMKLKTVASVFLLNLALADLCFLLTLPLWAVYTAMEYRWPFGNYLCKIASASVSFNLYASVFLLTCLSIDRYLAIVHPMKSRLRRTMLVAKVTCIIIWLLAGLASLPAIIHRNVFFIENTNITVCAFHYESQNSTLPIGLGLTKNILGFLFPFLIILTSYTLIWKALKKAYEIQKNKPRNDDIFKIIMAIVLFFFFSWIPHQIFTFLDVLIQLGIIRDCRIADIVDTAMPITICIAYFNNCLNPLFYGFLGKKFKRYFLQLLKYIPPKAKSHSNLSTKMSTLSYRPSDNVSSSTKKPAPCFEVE
- test-details: AT1 receptor antagonists, dose response, selectivity assay for APJ receptor antagonist project, cell-based, uHTS hits (AID 463214);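 further: antagonist potency against angiotensin II stimulated AT1 response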
- Format: functional
Calls of active or inactive are those of the source.
quantity-kind: IC50

>>> result("Cc1ccc2oc(Nc3nc(O)cc(-c4ccccc4)n3)nc2c1")
"3.99 µM (active)"
>>> result("Cc1ccc(NS(=O)(=O)c2cc([N+](=O)[O-])ccc2N/N=C/c2sc(N3CCOCC3)nc2-c2ccccc2)c(C)c1")
"> 40 µM (not active)"
>>> result("Cc1ccc(C(=O)CNc2ccc(Br)cc2)cc1")
"7.47 µM (active)"
>>> result("O=C(OCC(=O)c1ccc(Cl)cc1Cl)c1ccccn1")
"35.9 µM (not active)"
>>> result("Cc1ccc(OCC(=O)OCC(=O)c2cccc([N+](=O)[O-])c2)cc1C")
"> 40 µM (not active)"

---

- test-target: Long-chain-fatty-acid--AMP ligase FadD28 (Mycobacterium tuberculosis, UniProt P9WQ59)
- Sequence (P9WQ59 whole entry): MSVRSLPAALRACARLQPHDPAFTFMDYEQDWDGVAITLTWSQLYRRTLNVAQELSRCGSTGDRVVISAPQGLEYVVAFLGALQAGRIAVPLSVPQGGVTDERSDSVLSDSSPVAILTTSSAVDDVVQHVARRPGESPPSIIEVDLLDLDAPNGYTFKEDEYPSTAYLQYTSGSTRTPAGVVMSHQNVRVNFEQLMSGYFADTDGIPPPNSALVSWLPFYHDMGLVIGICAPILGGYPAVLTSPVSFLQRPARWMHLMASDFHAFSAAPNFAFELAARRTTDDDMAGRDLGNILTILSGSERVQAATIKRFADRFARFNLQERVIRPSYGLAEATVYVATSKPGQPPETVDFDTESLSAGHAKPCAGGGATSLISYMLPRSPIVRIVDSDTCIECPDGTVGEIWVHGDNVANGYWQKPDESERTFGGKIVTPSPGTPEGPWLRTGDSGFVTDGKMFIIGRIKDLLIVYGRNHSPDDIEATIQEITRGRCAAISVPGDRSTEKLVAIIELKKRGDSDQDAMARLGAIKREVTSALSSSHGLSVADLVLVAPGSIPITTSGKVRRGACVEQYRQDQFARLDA
- test-details: Fluorescence polarization aasay to screen for inhibitors that compete for the binding of FadD28 to a bisubstrate Measured in Biochemical System Using Plate Reader - 2147-01_Inhibitor_Dose_CherryPick_Activity.
- Format: functional, Mycobacterium tuberculosis H37Rv
Active and inactive are the calls of the source.
Outcomes: active, inactive

>>> assigned_class("COc1cccc(NC(=O)CN(C)C(=O)c2ccc(S(=O)(=O)Nc3ccccc3C)cc2)c1")
"inactive"
>>> assigned_class("O=C(O)c1[nH]c2ccccc2c1C(c1ccccc1)c1c(C(=O)O)[nH]c2ccccc12")
"active"
>>> assigned_class("O=C(O)COc1ccccc1-c1nc(-c2ccccc2)c(-c2ccccc2)[nH]1")
"inactive"
>>> assigned_class("N#CC1=C(N)N(c2ccccc2)C(c2ccco2)C1(C#N)C#N (centres undefined)")
"inactive"

---

- test-target: Protein skinhead-1 (Caenorhabditis elegans)
- Sequence (P34707 whole entry): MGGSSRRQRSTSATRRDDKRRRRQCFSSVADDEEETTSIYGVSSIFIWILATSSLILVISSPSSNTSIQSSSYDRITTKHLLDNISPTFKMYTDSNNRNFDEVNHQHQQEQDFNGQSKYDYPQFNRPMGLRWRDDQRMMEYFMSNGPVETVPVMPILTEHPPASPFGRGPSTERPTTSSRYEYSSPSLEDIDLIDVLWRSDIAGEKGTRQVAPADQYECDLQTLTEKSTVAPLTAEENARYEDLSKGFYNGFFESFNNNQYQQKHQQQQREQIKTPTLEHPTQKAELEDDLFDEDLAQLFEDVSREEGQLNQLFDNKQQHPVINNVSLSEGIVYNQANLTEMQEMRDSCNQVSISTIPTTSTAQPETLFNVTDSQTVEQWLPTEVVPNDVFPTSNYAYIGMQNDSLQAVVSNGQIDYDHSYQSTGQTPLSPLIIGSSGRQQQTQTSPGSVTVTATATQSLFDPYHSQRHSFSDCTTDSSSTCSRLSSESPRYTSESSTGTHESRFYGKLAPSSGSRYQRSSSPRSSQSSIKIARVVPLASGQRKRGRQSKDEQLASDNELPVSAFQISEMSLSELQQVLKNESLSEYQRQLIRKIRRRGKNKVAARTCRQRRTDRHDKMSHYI
- Assay type: functional
Active and inactive are the calls of the source.
Outcomes: yes for active, no for inactive

>>> assigned_class("O=C(c1cnn2c(C(F)(F)F)cc(-c3ccco3)nc12)N1CCCc2ccccc21")
"no"
>>> assigned_class("CC(Oc1ccc(Cl)cc1)c1ccnn1S(C)(=O)=O (configuration not stated)")
"no"
>>> assigned_class("Clc1ccc(-c2nnn(Cc3nc4ccccc4s3)n2)cc1")
"no"
>>> assigned_class("S=C(Nc1ccccc1)Nc1nc2ccccc2n1CCOc1ccccc1")
"no"
>>> assigned_class("O=C(Nc1cc(-c2ccccc2)n[nH]1)c1ccccc1")
"no"
>>> assigned_class("Cc1ccc(-c2nnc(-c3cccs3)o2)cc1")
"yes"
>>> assigned_class("Brc1ccc(-c2nc(-c3ccncc3)no2)o1")
"no"
>>> assigned_class("COCCCNC(=O)COc1ccc2oc3c(c2c1)CCCC3")
"no"
>>> assigned_class("Cc1ccc(Cl)c(N/C=C/C(=O)c2ccccc2)c1")
"yes"
>>> assigned_class("O=[N+]([O-])c1ccc(OCc2cnc(Cl)s2)cc1")
"no"
>>> assigned_class("c1ccc(-c2cc3nccc(-c4ccccn4)n3n2)cc1")
"yes"
>>> assigned_class("CSc1ccccc1C(=O)NCCOc1cccc(C)c1")
"no"
>>> assigned_class("Cc1ccc2cc3cc(C(=O)N4CC(C)CC(C)C4)oc3nc2c1 (configuration not stated)")
"no"
>>> assigned_class("COCCCn1c(=O)c2ccccc2n(Cc2cccc(C)c2)c1=O")
"no"
>>> assigned_class("COC(=O)c1cc(-c2ccc(Br)cc2)n[nH]1")
"no"
>>> assigned_class("CC(C)CCNC(=O)c1cnn2c(C(F)(F)F)cc(-c3ccco3)nc12")
"no"
>>> assigned_class("O=[N+]([O-])c1ccc2nc(-c3ccc(Cl)cc3)n(OCc3ccccc3)c2c1")
"no"

---

- test-target: Sentrin-specific protease 8 (Homo sapiens, UniProt Q96LD8);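 further: luminescence read-out of SENP8 inhibition, dose-response confirmation following an ultra-high-throughput screen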
- Assay type: functional
Activity calls are given as the source filed them.
# IC50 per entry
quantity-kind: IC50

>>> result("CCCSC(=N)N/N=C/c1cc(C)ccc1O")
"> 100 µM (inactive)"
>>> result("COC(=O)c1sc(-c2ccc(Cl)cc2)cc1N")
"67.1 µM (active)"
>>> result("O=C(Nc1ccc(Br)cc1)c1ccc2c(c1)OCO2")
"> 100 µM (inactive)"
>>> result("C(=N\\Nc1nc(-c2ccccc2)cs1)/c1cccs1")
"31.6 µM (active)"

---

# IC50 per entry
- test-target: Aminopeptidase N (Plasmodium falciparum FcB1/Columbia)
- Sequence (O96935 whole entry): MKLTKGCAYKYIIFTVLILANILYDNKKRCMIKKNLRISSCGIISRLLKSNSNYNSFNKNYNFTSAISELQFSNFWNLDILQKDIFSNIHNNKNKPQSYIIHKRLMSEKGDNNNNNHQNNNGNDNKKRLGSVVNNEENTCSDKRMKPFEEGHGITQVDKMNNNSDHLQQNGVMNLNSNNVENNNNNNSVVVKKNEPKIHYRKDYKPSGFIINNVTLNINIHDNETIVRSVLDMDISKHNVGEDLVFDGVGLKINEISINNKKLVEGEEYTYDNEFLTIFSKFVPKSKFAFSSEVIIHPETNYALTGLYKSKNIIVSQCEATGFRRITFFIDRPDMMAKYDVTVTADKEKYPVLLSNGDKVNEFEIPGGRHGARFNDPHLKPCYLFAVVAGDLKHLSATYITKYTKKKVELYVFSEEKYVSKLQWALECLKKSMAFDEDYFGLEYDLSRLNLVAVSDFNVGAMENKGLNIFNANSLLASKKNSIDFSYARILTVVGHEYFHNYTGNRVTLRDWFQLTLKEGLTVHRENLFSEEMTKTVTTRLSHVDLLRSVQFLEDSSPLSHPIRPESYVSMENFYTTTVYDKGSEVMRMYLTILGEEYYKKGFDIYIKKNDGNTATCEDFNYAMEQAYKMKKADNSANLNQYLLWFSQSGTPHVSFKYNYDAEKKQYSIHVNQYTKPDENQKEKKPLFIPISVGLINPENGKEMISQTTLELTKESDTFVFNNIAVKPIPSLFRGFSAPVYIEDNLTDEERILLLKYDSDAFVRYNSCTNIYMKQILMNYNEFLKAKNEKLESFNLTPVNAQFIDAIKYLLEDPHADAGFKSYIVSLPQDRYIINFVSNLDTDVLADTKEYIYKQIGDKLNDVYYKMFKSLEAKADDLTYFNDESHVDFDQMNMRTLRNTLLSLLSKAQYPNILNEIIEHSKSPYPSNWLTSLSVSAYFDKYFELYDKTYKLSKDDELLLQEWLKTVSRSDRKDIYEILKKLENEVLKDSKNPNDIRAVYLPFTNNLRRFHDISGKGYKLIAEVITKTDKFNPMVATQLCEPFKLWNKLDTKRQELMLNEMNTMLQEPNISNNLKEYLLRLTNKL
- test-details: P. falciparum M1AAP inhibitors, biochemical, fluorogenic H-Leu-NHMec substrate, 1536-well (AID 1445)
- Set-up: species or system Plasmodium falciparum 3D7, 3D7
Activity calls are given as the source filed them.
quantity-kind: IC50

>>> result("COCCCn1c(=N)c(C(=O)NCC2CCCO2)cc2c(=O)n3ccccc3nc21 (stereo not given)")
"60.2 µM (active)"
>>> result("Cc1cc(C)n2nc(C(=O)NNC(=O)c3ccc(Cl)cc3)nc2n1")
"15.9 µM (active)"
>>> result("O=C(CSc1nc2c(c(=O)n1-c1ccc(Cl)cc1)SCC2)NCC1CCCO1 (stereo not given)")
"58.3 µM (active)"
>>> result("CCCCc1cc(=O)oc2c(CN(C)C)c(O)ccc12")
"30.2 µM (active)"
>>> result("CCc1c(C)c2cc(Cl)c(O)c(CN(CC)CC)c2oc1=O")
"34.6 µM (active)"

---

- test-target: Peroxisome proliferator-activated receptor gamma/Nuclear receptor coactivator 2 (Homo sapiens)
- Sequence (P37231 whole entry): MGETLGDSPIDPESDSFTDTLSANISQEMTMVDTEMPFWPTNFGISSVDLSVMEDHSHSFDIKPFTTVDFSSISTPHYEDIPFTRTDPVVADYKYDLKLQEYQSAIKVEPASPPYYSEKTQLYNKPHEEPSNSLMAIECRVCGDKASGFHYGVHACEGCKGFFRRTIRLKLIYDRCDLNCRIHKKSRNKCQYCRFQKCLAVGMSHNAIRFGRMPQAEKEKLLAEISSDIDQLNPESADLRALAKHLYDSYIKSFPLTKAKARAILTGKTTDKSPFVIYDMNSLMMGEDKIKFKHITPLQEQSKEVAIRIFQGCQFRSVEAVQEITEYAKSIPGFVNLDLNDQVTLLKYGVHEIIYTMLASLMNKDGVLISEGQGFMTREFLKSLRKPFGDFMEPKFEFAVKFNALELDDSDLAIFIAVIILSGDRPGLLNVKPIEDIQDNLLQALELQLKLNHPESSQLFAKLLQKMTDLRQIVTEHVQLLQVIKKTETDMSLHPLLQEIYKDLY
- Sequence (Q15596 whole entry, further chain): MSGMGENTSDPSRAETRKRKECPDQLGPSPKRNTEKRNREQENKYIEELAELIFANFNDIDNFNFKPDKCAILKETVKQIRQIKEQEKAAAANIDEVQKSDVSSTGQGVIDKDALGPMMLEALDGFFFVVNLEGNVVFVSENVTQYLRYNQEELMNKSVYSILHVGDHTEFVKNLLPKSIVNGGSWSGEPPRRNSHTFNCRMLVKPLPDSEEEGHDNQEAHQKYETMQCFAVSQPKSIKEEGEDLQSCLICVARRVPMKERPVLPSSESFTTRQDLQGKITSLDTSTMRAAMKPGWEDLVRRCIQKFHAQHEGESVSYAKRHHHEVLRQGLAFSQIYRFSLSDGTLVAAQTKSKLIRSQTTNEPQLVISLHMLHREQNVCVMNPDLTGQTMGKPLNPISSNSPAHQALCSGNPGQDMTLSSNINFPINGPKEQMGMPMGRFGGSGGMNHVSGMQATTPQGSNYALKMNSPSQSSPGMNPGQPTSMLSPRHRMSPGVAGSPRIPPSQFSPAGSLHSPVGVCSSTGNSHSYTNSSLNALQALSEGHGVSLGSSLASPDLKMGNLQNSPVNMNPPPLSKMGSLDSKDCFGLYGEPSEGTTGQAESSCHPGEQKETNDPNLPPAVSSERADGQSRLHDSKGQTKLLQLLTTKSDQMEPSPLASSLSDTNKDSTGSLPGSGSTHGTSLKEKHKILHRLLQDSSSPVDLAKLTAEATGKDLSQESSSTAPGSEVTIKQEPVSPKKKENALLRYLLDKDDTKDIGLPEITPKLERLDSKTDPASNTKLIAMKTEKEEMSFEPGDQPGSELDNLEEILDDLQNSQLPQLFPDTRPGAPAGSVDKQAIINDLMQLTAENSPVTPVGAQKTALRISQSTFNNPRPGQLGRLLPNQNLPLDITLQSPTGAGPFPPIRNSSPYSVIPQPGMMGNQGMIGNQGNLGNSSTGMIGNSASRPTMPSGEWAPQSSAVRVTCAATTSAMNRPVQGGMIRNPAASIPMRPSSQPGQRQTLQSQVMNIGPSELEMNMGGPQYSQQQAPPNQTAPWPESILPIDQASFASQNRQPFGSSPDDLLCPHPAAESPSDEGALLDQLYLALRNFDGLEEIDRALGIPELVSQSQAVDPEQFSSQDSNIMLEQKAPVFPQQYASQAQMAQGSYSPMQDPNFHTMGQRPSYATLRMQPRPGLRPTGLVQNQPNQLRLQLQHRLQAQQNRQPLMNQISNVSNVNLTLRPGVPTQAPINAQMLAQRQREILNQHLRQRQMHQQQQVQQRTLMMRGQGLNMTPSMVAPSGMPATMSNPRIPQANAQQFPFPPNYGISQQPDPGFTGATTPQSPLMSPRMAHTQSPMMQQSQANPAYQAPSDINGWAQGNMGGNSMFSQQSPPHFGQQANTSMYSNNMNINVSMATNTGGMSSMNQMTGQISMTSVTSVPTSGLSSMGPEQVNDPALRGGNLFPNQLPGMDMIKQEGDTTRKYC
- test-details: TR-FRET dose response biochemical High Throughput Screening assay for agonists of the steroid receptor coactivator 2 (SRC-2) recruitment by the peroxisome proliferator-activated receptor gamma (PPAR gamma): non-selective agonists. [Related pubchem assays: 1297, 1032 ]
- Type: functional
# EC50 per entry
quantity-kind: EC50

>>> result("CCOc1ccc(CCNC(=O)CSc2cc(=O)n(C)c3ccccc23)cc1OCC")
"> 79.4 µM (not active)"
>>> result("CCc1cc(=O)oc2cc(C)cc(O)c12")
"21.1 µM (not active)"
>>> result("CN(C)CCN1C(=O)C(O)=C(C(=O)c2cc3ccccc3o2)C1c1cccc(Br)c1 (stereo not given)")
"> 79.4 µM (not active)"
>>> result("CCn1c(=O)cc(SCC(=O)N2CCN(Cc3ccc4c(c3)OCO4)CC2)c2ccccc21")
"> 79.4 µM (not active)"
>>> result("COc1ccc(NP(=O)(Oc2ccccc2OC)Oc2ccccc2OC)cc1")
"> 79.4 µM (not active)"

Source of measurements: ChEMBL document CHEMBL1201862
